Target: Plasmodium falciparum Hsp70‐x (full length) (Plasmodium falciparum)
Test: SPR; PfHsp70‐x or PfHsp70‐xT immobilised on ProteOn GLC chips, peptides as analytes at 1.25-20 nM, 25°C, PBS‐Tween pH 7.4, with 2 mM ATP
pKd: −log10 of the molar value.

binder: ANNNMYRR [peptide ANNNMYRR]
pKd: 6.11
--
binder: NRNNTG [peptide NRNNTG]
pKd: 6.86
--
binder: NRLLTG [peptide NRLLTG]
pKd: 5.77
--
binder: ALLLMYRR [peptide ALLLMYRR]
pKd: 4.22
